Origin of measurements: paper PMC12751014

tested target: p38/MK2 interaction (Homo sapiens, UniProt Q16539)
Sequence (Q16539 whole entry): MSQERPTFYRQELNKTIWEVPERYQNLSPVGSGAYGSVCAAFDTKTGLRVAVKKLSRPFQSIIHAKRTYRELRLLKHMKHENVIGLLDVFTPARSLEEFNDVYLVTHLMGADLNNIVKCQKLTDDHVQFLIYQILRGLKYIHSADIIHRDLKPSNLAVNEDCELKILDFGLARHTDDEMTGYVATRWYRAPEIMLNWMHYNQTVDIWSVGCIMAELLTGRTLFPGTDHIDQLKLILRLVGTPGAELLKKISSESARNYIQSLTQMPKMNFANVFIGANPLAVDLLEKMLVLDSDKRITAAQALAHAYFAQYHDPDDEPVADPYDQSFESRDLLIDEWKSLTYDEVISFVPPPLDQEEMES
test method notes: TR-FRET ultra-high-throughput screening (uHTS), 1536-well, HEK293T lysate VF-p38α / GST-MK2
Type: binding
Set-up: concentration or dose not given beside the values
experimental context: relative to DMSO control, 1536-well
reported endpoint: inhibition of p38/MK2 interaction, primary screen (%)

Below: 5 molecules and their reported inhibition of p38/MK2 interaction, primary screen.
C[C@@H]1[C@H](O)[C@@H](C)/C=C/C=C/C=C/C=C/C=C/C=C/C=C/[C@H](O[C@@H]2O[C@H](C)[C@@H](O)[C@H](N)[C@@H]2O)C[C@@H]2O[C@](O)(C[C@@H](O)C[C@@H](O)[C@H](O)CC[C@@H](O)C[C@@H](O)CC(=O)O[C@H]1C)C[C@H](O)[C@H]2C(=O)O; 51
COc1cc2nc(N3CCN(C(=O)C4CCCO4)CC3)nc(N)c2cc1OC (centres unmarked); 77
Cc1cc(C(C#N)c2ccc(Cl)cc2)c(Cl)cc1NC(=O)c1cc(I)cc(I)c1O (centres unmarked); 53
COc1cc2nc(N(C)CCCNC(=O)C3CCCO3)nc(N)c2cc1OC (centres unmarked); 82
COc1cc2nc(N3CCN(C(=O)C4COc5ccccc5O4)CC3)nc(N)c2cc1OC (centres unmarked); 58

P: C=C(c1ccc(C(=O)O)cc1)c1cc2c(cc1C)C(C)(C)CCC2(C)C
Q: CN(C)[C@@H]1C(O)=C(C(N)=O)C(=O)[C@@]2(O)C(O)=C3C(=O)c4c(O)cccc4[C@@](C)(O)[C@H]3[C@H](O)[C@@H]12
Exercise: Hey, which is lower on measured inhibition of p38/MK2 interaction, primary screen, P or Q ? Identify your selection by its label.
Key: Q
(Q: 51%, P: 74%)

###

tested target: p38/MK2 interaction (Homo sapiens, UniProt Q16539)
test method notes: TR-FRET assay with purified recombinant His-p38 and GST-MK2
Type: binding
experimental context: purified His-p38 and GST-MK2; read-out: IC50, inhibition of p38/MK2 PPI (TR-FRET, recombinant purified proteins)
pIC50: −log10 of the molar value.
reported endpoint: pIC50

Cc1cn(-c2cc(NC(=O)c3ccc(C)c(Nc4ncccn4)c3)cc(C(F)(F)F)c2)cn1 [Compound 5]; 4.94
COc1cc2nc(N(C)CCCNC(=O)C3CCCO3)nc(N)c2cc1OC (centres unmarked) [alfuzosin]; 5.16

A: CCc1cn(-c2cc(NC(=O)c3ccc(C)c(Nc4nccc(-c5cccnc5)n4)c3)cc(C(F)(F)F)c2)cn1 [Compound 2]
B: CNC(=O)c1ccc(CCNC(=O)C(=O)Nc2cc(-n3cnc(C)c3)cc(C(F)(F)F)c2)cc1 [Compound 6]
C: COc1cc2nc(N3CCN(C(=O)C4COc5ccccc5O4)CC3)nc(N)c2cc1OC (centres unmarked) [doxazosin]
D: Cc1cn(-c2cc(NC(=O)c3ccc(O)c(Nc4nccc(-c5cccnc5)n4)c3)cc(C(F)(F)F)c2)cn1 [Compound 4]
Exercise: Please order the records by their reported pIC50, lowest number first. Your answer should be the labels, listed in the requested order.
Key: B, D, C, A
(B: 4.67, D: 5.08, C: 5.36, A: 5.64)

###

tested target: VF-tagged p38 / His-tagged MK2 346–400 docking peptide (Homo sapiens)
Sequence (Q16539 whole entry): as above
test method notes: Cell lysate-based TR-FRET competition assay, VF-p38 / His-MK2 346–400 docking peptide
experimental context: HEK293T lysate TR-FRET; read-out: IC50, binding of His-MK2 346–400 docking peptide to VF-p38
pIC50: −log10 of the molar value.
reported endpoint: pIC50

COc1cc2nc(N(C)CCCNC(=O)C3CCCO3)nc(N)c2cc1OC (stereo not drawn); 4.84

a: COc1cc2nc(N3CCN(C(=O)C4COc5ccccc5O4)CC3)nc(N)c2cc1OC (stereo not drawn)
b: COc1cc2nc(N3CCN(C(=O)C4CCCO4)CC3)nc(N)c2cc1OC (stereo not drawn)
Exercise: Among a and b , whose measured pIC50 is the smaller figure? Refer to your chosen item by its label in the answer.
Key: b
(b: 5.08, a: 5.34)

###

tested target: p38/MK2 interaction (Homo sapiens)
test method notes: TR-FRET ultra-high-throughput screening (uHTS), 1536-well, HEK293T lysate VF-p38α / GST-MK2
Type: binding
Set-up: concentration or dose not given beside the values
experimental context: relative to DMSO control, 1536-well
reported endpoint: inhibition of p38/MK2 interaction, primary screen (%)

CCOc1nc2cccc(C(=O)OC(C)OC(=O)OC3CCCCC3)c2n1Cc1ccc(-c2ccccc2-c2nnn[nH]2)cc1 (stereo not shown); 68
CS(=O)(=O)c1ccc(C2=C(c3ccccc3)C(=O)OC2)cc1; 73
CN1CCc2cccc3c2[C@H]1Cc1ccc(O)c(O)c1-3; 56
